# testProtocol: total protein half-life in vivo (active degradation + dilution); higher = more stable protein
# testConditions: E. coli NCM3722 delta-clpP delta-lon delta-hslV; growth: N-lim chemostat; doubling time 6 h
Please mark Yes if the recorded total protein half-life in vivo is equal to or greater than 4 h, and No if it falls below.

Query block: Quick check, total protein half-life in vivo >= 4 h? MTNNPLIPQSKLPQLGTTIFTQMSALAQQHQAINLSQGFPDFDGPRYLQERLAHHVAQGANQYAPMTGVQALREAIAQKTERLYGYQPDADSDITVTAGATEALYAAITALVRNGDEVICFDPSYDSYAPAIALSGGIVKRMALQPPHFRVDWQEFAALLSERTRLVILNTPHNPSATVWQQADFAALWQAIAGHEIFVISDEVYEHINFSQQGHASVLAHPQLRERAVAVSSFGKTYHMTGWKVGYCVAPAPISAEIRKVHQYLTFSVNTPAQLALADMLRAEPEHYLALPDFYRQKRDILVNALNESRLEILPCEGTYFLLVDYSAVSTLDDVEFCQWLTQEHGVAAIPLSVFCADPFPHKLIRLCFAKKESTLLAAAERLRQL
Result block: No

Query block: Check if total protein half-life in vivo >= 4 h (inclusive). Item: MHVFDNNGIELKAECSIGEEDGVYGLILESWGPGDRNKDYNIALDYIIERLVDSGVSQVVVYLASSSVRKHMHSLDERKIHPGEYFTLIGNSPRDIRLKMCGYQAYFSRTGRKEIPSGNRTKRILINVPGIYSDSFWASIIRGELSELSQPTDDESLLNMRVSKLIKKTLSQPEGSRKPVEVERLQKVYVRDPMVKAWILQQSKGICENCGKNAPFYLNDGNPYLEVHHVIPLSSGGADTTDNCVALCPNCHRELHYSKNAKELIEMLYVNINRLQK
Result block: Yes

Query block: Determine whether measured total protein half-life in vivo meets or exceeds 4 h for MNIYTFDFDEIESQEDFYRDFSQTFGLAKDKVRDLDSLWDVLMNDVLPLPLEIEFVHLGEKTRRRFGALILLFDEAEEELEGHLRFNVRH
Result block: Yes

Query block: Hi team, for MKEKTIIIVGGGQAAAMAAASLRQQGFTGELHLFSDERHLPYERPPLSKSMLLEDSPQLQQVLPANWWQENNVHLHSGVTIKTLGRDTRELVLTNGESWHWDQLFIATGAAARPLPLLDALGERCFTLRHAGDAARLREVLQPERSVVIIGAGTIGLELAASATQRRCKVTVIELAATVMGRNAPPPVQRYLLQRHQQAGVRILLNNAIEHVVDGEKVELTLQSGETLQADVVIYGIGISANEQLAREANLDTANGIVIDEACRTCDPAIFAGGDVAITRLDNGALHRCESWENANNQAQIAAAAMLGLPLPLLPPPWFWSDQYSDNLQFIGDMRGDDWLCRGNPETQKAIWFNLQNGVLIGAVTLNQGREIRPIRKWIQSGKTFDAKLLIDENIALKSL , is the recorded total protein half-life in vivo at or above 4 h?
Result block: Yes

Query block: Decide: is the reported value of total protein half-life in vivo for MFDFASYHRAATLADAINLLADNPQAKLLAGGTDVLIQLHHHNDRYRHIVDIHNLAELRGITLAEDGSLRIGSATTFTQLIEDPITQRHLPALCAAATSIAGPQIRNVATYGGNICNGATSADSATPTLIYDAKLEIHSPRGVRFVPINGFHTGPGKVSLEHDEILVAFHFPPQPKEHAGSAHFKYAMRDAMDISTIGCAAHCRLDNGNFSELRLAFGVAAPTPIRCQHAEQTAQNAPLNLQTLEAISESVLQDVAPRSSWRASKEFRLHLIQTMTKKVISEAVAAAGGKLQ equal to or greater than 4 h?
Result block: Yes
